meta.source: PubChem BioAssay (Tox21)

# assay-target: D(2) dopamine receptor (Homo sapiens) (UniProt P14416)
# Sequence (P14416 whole entry, looked up): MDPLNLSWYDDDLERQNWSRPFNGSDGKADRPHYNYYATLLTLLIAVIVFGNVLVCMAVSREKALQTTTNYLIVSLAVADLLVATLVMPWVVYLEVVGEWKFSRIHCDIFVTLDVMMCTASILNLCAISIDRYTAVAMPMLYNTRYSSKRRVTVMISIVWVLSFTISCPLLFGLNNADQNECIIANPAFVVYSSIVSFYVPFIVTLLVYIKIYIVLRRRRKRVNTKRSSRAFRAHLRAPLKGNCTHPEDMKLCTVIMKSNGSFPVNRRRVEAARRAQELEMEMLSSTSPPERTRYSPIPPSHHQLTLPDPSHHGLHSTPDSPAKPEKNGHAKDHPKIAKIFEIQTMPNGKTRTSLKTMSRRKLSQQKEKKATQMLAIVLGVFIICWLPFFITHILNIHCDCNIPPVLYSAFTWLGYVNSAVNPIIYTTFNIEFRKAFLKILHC
# assay-notes: Dopamine D2 receptor (DRD2) small molecule antagonists, cell-based qHTS assay (AID 1963595); note: % is set by controls: 0 for no effect and ±100 for the full control effect
# condition-summary: HEK293-DRD2 cAMP HTRF antagonist mode; series mostly up to 92.4 µM
Records with an inconclusive call do not appear. The source made the active and inactive calls. Calls come from the whole dose curve; as a rule, active = well fitted inhibition curve with a large enough effect in the signal ratio in the repeat runs, with a control signal flat; inconclusive = weak or mixed curves, or effect the other way; inactive = flat fitted curve, though single readings scatter; the % refers to the signal ratio.
property: outcome

molecule=CON(C)C(=O)Nc1ccc(Br)cc1 measurement=inactive
molecule=N[C@@H](Cc1ccc(Oc2cc(I)c(O)c(I)c2)c(I)c1)C(=O)O measurement=inactive
molecule=Clc1cccc2ccccc12 measurement=inactive
molecule=CNC(=O)O/N=C(/CSC)C(C)(C)C measurement=inactive
molecule="CCOP(=O)(SC(C)CC)N1CCSC1=O (configuration not stated)" measurement=inactive
molecule="CCC(C)c1cc(C(C)(C)C)cc(-n2nc3ccccc3n2)c1O (configuration not stated)" measurement=inactive
molecule=CCS(=O)(=O)C(C)(C)S(=O)(=O)CC measurement=inactive

###

# assay-notes: p53 small molecule agonists, cell-based qHTS assay (AID 1963582); note: % is set by controls: 0 for no effect and ±100 for the full control effect
# condition-summary: HCT-116 p53RE-bla reporter, beta-lactamase FRET ratio, 16 h; series mostly up to 66 µM
Results filed as inconclusive are left out. Active and inactive are the calls of the source. The call rests on the fitted dose curve; in most records, active means well fitted activation curve with a large enough effect in the signal ratio in the repeat runs (not every such curve was filed as active); inconclusive means weak or mixed curves; inactive means flat fitted curve, though single readings scatter; the % refers to the signal ratio.
property: activation

cpd_smiles=Clc1cc2c(cc1Cl)Oc1cc(Cl)c(Cl)cc1O2 measurement="1.03% [at 0.249 µM] (inactive)"
cpd_smiles=O=C1c2ccccc2C(=O)c2ccccc21 measurement="-1.94% [at 13.5 µM] (inactive)"
cpd_smiles=CC1=C(C(=O)O)N2C(=O)[C@@H](N)[C@H]2SC1 measurement="0.428% [at 13.5 µM] (inactive)"
cpd_smiles=CC(=O)OCC1=C(C(=O)O)N2C(=O)[C@@H](N)[C@H]2SC1 measurement="1.4% [at 13.5 µM] (inactive)"

###

# assay-notes: p53 small molecule agonists, cell-based qHTS assay: qHTS cell viability counter screen (AID 1963581); note: nearly all actives have a fitted effect of over 45% in size; for activity change, negative = cytotoxicity: % is set by controls: 0 for no effect and ±100 for the full control effect
# condition-summary: p53RE-bla HCT-116 viability, ATP luminescence, 16 h; series mostly up to 66 µM
Records with an inconclusive call do not appear. The source made the active and inactive calls. Calls follow the shape of the full dose curve.
property: activity change, negative = cytotoxicity

compound=CCCCCCC(=O)CCCCCC/C=C/C[C@@H](O)[C@H](O)[C@@](N)(CO)C(=O)O property="activity change, negative = cytotoxicity" measurement="17.4% [at 13.5 µM] (inactive)"
compound="NCC(CC(=O)O)c1ccc(Cl)cc1 (configuration not stated)" property="activity change, negative = cytotoxicity" measurement="-8.51% [at 0.249 µM] (inactive)"
compound=CCCCCCCCCCCCN=C(N)N property="activity change, negative = cytotoxicity" measurement="10.9% [at 2.33 µM] (inactive)"
compound=Clc1cc2c(cc1Cl)Oc1cc(Cl)c(Cl)cc1O2 property="activity change, negative = cytotoxicity" measurement="1.19% [at 0.249 µM] (inactive)"
compound=CC(=O)[O-].CC(=O)[O-].CC(=O)[O-].[Sb+3] property="activity change, negative = cytotoxicity" measurement="11.8% [at 2.33 µM] (inactive)"
compound=O=C1c2ccccc2C(=O)c2ccccc21 property="activity change, negative = cytotoxicity" measurement="5.09% [at 13.5 µM] (inactive)"
compound="Cc1ccc2c(c1)C1CN(C)CCC1N2 (configuration not stated)" property="activity change, negative = cytotoxicity" measurement="13.5% [at 13.5 µM] (inactive)"

###

# assay-notes: Nuclear factor erythroid 2-related factor 2/antioxidant responsive element (Nrf2/ARE) small molecule agonists: qHTS cell viability counter screen in human keratinocytes (AID 1919968); note: nearly all actives have a fitted effect of over 55% in size
# condition-summary: KeratinoSens HaCaT ARE cells viability, CellTiter-Fluor, 24 h; series mostly up to 92.4 µM
# From the text: U.S. Tox21 Program National Center for Advancing Translational Sciences [NCATS] Division of Preclinical Innovation [DPI] U.S. Environmental Protection Agency [EPA] National Institutes of Environmental Health Sciences [NIEHS] National Toxicology Program [NTP] U.S. Food and Drug Administration [FDA] […] The activation of the report gene under culture conditions can be detected by ONE-Glo Luciferase Assay System (Promega, Madison, WI). […]
Records with an inconclusive call do not appear. The source made the active and inactive calls. Calls come from the whole dose curve; as a rule, active = well fitted cell-killing curve with a large enough effect in the repeat runs; inconclusive = weak or mixed curves, or effect the other way; inactive = flat fitted curve, though single readings scatter.
Outcome codes: active, inactive

molecule=c1cc[n+]2c(c1)-c1cccc[n+]1CC2 class_assignment=inactive
molecule=CC(C)(C)c1cc([N+](=O)[O-])cc([N+](=O)[O-])c1O class_assignment=active
molecule=O=C(OC1CCCCC1)c1ccccc1C(=O)OC1CCCCC1 class_assignment=inactive
molecule=O=NN(CCO)CCO class_assignment=inactive
molecule="CCOC(=O)OC1=C(c2cc(C)ccc2C)C(=O)NC12CCC(OC)CC2 (configuration not stated)" class_assignment=inactive
molecule=COP(=S)(OC)Oc1nc(Cl)c(Cl)cc1Cl class_assignment=inactive
molecule="CC(Cc1ccccc1)NCCCCl (configuration not stated)" class_assignment=inactive

###

# assay-notes: p53 small molecule agonists, cell-based qHTS assay: qHTS cell viability counter screen (AID 1963581); note: nearly all actives have a fitted effect of over 45% in size
# condition-summary: p53RE-bla HCT-116 viability, ATP luminescence, 16 h; series mostly up to 66 µM
Inconclusive results are not listed. Active and inactive are the calls of the source. The call rests on the fitted dose curve.
Outcome codes: active, inactive

molecule="CC(C)C(Br)C(=O)NC(N)=O (configuration not stated)" class_assignment=inactive
molecule=Oc1ccc(Cl)c(Cl)c1Cl class_assignment=inactive
molecule=CN1CCN(C(=O)O[C@H]2c3nccnc3C(=O)N2c2ccc(Cl)cn2)CC1 class_assignment=inactive
molecule=C[N+](C)=CCl class_assignment=inactive
molecule="COP(N)(=S)Oc1ccccc1C(=O)OC(C)C (configuration not stated)" class_assignment=inactive
molecule=C=C(C)C(=O)[O][Sn]([CH2]CCC)([CH2]CCC)[CH2]CCC class_assignment=active
molecule=CC(C)(C)c1ccc(CSc2cnn(C(C)(C)C)c(=O)c2Cl)cc1 class_assignment=inactive
molecule=CCC[CH2][Sn]([CH2]CCC)([CH2]CCC)[O][Sn]([CH2]CCC)([CH2]CCC)[CH2]CCC class_assignment=active
molecule=c1ccc2cc3c(cc2c1)-c1cccc2cccc-3c12 class_assignment=inactive
molecule=O=C(O)c1ccc2[nH]cc(CCCCN3CC=C(c4ccccc4)CC3)c2c1 class_assignment=inactive
molecule="CCN1CCCC1CNC(=O)C(O)(c1ccccc1)c1ccccc1 (configuration not stated)" class_assignment=inactive
molecule="CCC(OC(C)=O)C(CC(C)NC)(c1ccccc1)c1ccccc1 (configuration not stated)" class_assignment=inactive
molecule=CCN(CCO)CCn1c(Cc2ccccc2)nc2c1c(=O)n(C)c(=O)n2C class_assignment=inactive
molecule=O=C(N[C@@H]1N=C(c2ccccc2F)c2cccc3c2N(CC3)C1=O)c1cc2ccccc2[nH]1 class_assignment=inactive
molecule=O=C(Cl)c1ccc(Cl)cc1 class_assignment=inactive
molecule=CCCCNC(=O)OCC#CI class_assignment=inactive
molecule=CCOP(=S)(OCC)SCCl class_assignment=inactive
molecule="CC1NCCOC1c1ccccc1 (configuration not stated)" class_assignment=inactive
molecule=C=CCOC(C)=O class_assignment=inactive
molecule=Cc1ncsc1CCCl class_assignment=inactive
molecule=COc1nn(C(=O)NS(=O)(=O)c2ccccc2OC(F)(F)F)c(=O)n1C class_assignment=inactive
molecule="CCCSP(=S)(OCC)Oc1ccc(Cl)cc1Cl (configuration not stated)" class_assignment=inactive
molecule=FC(F)(F)c1cccc(C2=CCN(CCc3ccc4ccccc4c3)CC2)c1 class_assignment=inactive
molecule=CC(C)(C)N(NC(=O)c1ccc(Cl)cc1)C(=O)c1ccccc1 class_assignment=inactive
molecule="CCC(C)Br (configuration not stated)" class_assignment=inactive
molecule=COP(=S)(OC)Oc1ccc(S(N)(=O)=O)cc1 class_assignment=inactive
molecule=C=CC(=O)OCC(COC(=O)C=C)(COC(=O)C=C)COC(=O)C=C class_assignment=active
molecule=ClC1=C(Cl)[C@]2(Cl)[C@H]3[C@H]([C@H]4C=C[C@H]3C4)[C@@]1(Cl)C2(Cl)Cl class_assignment=inactive
molecule=CCN(CC)CCOC(=O)C(C)(c1ccccc1)c1ccccc1 class_assignment=inactive
molecule=CCCCCOC(=O)c1ccccc1C(=O)OCCCCC class_assignment=inactive
molecule=O=[N+]([O-])c1cccc2cccc([N+](=O)[O-])c12 class_assignment=inactive
molecule=CC(C)CBr class_assignment=inactive
molecule="O=c1oc2ccccc2c(O)c1C1CCCc2ccccc21 (configuration not stated)" class_assignment=inactive
molecule="COc1cc(CC(C)N)c(OC)cc1Br (configuration not stated)" class_assignment=inactive
molecule=O=[N+]([O-])C(Br)(CO)CO class_assignment=inactive
molecule=Cn1[nH]nnc1=S class_assignment=inactive
molecule=CNC(=O)/C=C(\C)OP(=O)(OC)OC class_assignment=inactive
molecule=CCN(C(C)=O)c1cccc(-c2ccnc3c(C#N)cnn23)c1 class_assignment=inactive
molecule=CC(Cl)(Cl)Cl class_assignment=inactive
molecule=CC[C@@H](CO)NC(=O)[C@@H]1C=C2c3cccc4c3c(cn4C)C[C@H]2N(C)C1 class_assignment=inactive
molecule="O=C(O)C(Br)CBr (configuration not stated)" class_assignment=inactive
molecule=O=C(O)c1cc(I)cc(I)c1I class_assignment=inactive
molecule=Clc1ccc(-c2ccc(Cl)c(Cl)c2Cl)c(Cl)c1Cl class_assignment=inactive
molecule=c1cncc([C@@H]2CCCCN2)c1 class_assignment=inactive
molecule=CCN(CC)C(=O)N[C@@H]1C=C2c3cccc4[nH]cc(c34)C[C@@H]2N(C)C1 class_assignment=inactive
molecule=C#CC1(O)CCCCC1 class_assignment=inactive
molecule=Cc1ccc(-c2c(Cl)nc(C#N)n2S(=O)(=O)N(C)C)cc1 class_assignment=inactive
molecule=C[C@]12CC[C@H]3[C@@H](CCC4=CC(=O)CC[C@@H]43)[C@@H]1CC[C@@H]2OC(=O)CCc1ccco1 class_assignment=inactive
molecule=CCCCOP(=O)(O)OCCCC class_assignment=inactive
molecule="C=CCC1(C(C)CC)C(=O)NC(=O)NC1=O (configuration not stated)" class_assignment=inactive
molecule=CCOC(=O)C1(c2ccccc2)CCN(CCc2ccc(N)cc2)CC1 class_assignment=inactive
molecule=Cc1cccc(C)c1NC1=NCCCS1 class_assignment=inactive
